- MEASUREMENT NOTES: in vitro
- CONDITION SET: PAMPA, pH 7.4, PAMPA Pe_avg
Positions of bridges follow the written chain, without caps; N, C: chain ends. Non-standard residues stand in square brackets, D forms with d. Residues, ends and D or L forms follow the SMILES beside them. NMeC = CN[C@@H](CS)C(=O)O; NMeA = CN[C@@H](C)C(=O)O; dAbu = CC[C@@H](N)C(=O)O; dNMeA = CN[C@H](C)C(=O)O; Abu = CC[C@H](N)C(=O)O; NEtG = CCNCC(=O)O
We begin with a simple list: items and their reported Papp at 10 µM.
METRIC NAME: Papp at 10 µM

1. CCOC(=O)[C@@H]1CSCC(=O)N[C@H](CC)C(=O)N(C)[C@@H](C)C(=O)N[C@H](CC(C)C)C(=O)N2CCC[C@@H]2C(=O)N(CC)CC(=O)N[C@@H](CC(C)C)C(=O)N(C)[C@H](C)C(=O)N[C@@H](CC(C)C)C(=O)N1C [JF206_ADD_DDLD_Ethyl] ({CH2CO}-[dAbu][NMeA][dL][dP][NEtG]L[dNMeA]L[NMeC]-OEt; thioether N-9)    0.005 ×10⁻⁶ cm/s
2. CCOC(=O)[C@@H]1CSCC(=O)N[C@H](CC)C(=O)N(C)[C@@H](C)C(=O)N[C@H](CC(C)C)C(=O)N2CCC[C@@H]2C(=O)N(CC)CC(=O)N[C@H](CC(C)C)C(=O)N(C)[C@H](C)C(=O)N[C@@H](CC(C)C)C(=O)N1C [JF206_ADD_DDDD_Ethyl] ({CH2CO}-[dAbu][NMeA][dL][dP][NEtG][dL][dNMeA]L[NMeC]-OEt; thioether N-9)    0.16 ×10⁻⁶ cm/s
3. CCOC(=O)[C@@H]1CSCC(=O)N[C@@H](CC)C(=O)N(C)[C@@H](C)C(=O)N[C@@H](CC(C)C)C(=O)N2CCC[C@H]2C(=O)N(CC)CC(=O)N[C@H](CC(C)C)C(=O)N(C)[C@H](C)C(=O)N[C@@H](CC(C)C)C(=O)N1C [JF206_ALL_LLDD_Ethyl] ({CH2CO}-[Abu][NMeA]LP[NEtG][dL][dNMeA]L[NMeC]-OEt; thioether N-9)    0.00468 ×10⁻⁶ cm/s

----------
- MEASUREMENT NOTES: in vitro
- CONDITION SET: PAMPA, pH 7.4, Permeability (Papp) PAMPA (mixture)
Positions of bridges follow the written chain, without caps; N, C: chain ends. Non-standard residues stand in square brackets, D forms with d. Residues, ends and D or L forms follow the SMILES beside them. NMeAbu = CC[C@H](NC)C(=O)O; NMeC = CN[C@@H](CS)C(=O)O; NMeA = CN[C@@H](C)C(=O)O; Nva = CCC[C@H](N)C(=O)O; Abu = CC[C@H](N)C(=O)O; NPrGly = CCCNCC(=O)O; NEtG = CCNCC(=O)O
We begin with a simple list: items and their reported Papp at 10 µM.
METRIC NAME: Papp at 10 µM (×10⁻⁶ cm/s)

1) CCC[C@@H]1NC(=O)[C@H](C)N(C)C(=O)[C@H](CC(C)C)NC(=O)CSC[C@@H](C(=O)OCC)N(C)C(=O)[C@H](CC(C)C)NC(=O)[C@H](C)N(C)C(=O)[C@H](CC(C)C)NC(=O)CN(CCC)C(=O)[C@H]2CCCN2C1=O [LA07] ({CH2CO}-L[NMeA][Nva][dP][NPrGly]L[NMeA]L[NMeC]-OEt; thioether N-9)    3
2) CCOC(=O)[C@@H]1CSCC(=O)N[C@@H](CC(C)C)C(=O)N(C)[C@@H](C)C(=O)N[C@@H](CC(C)C)C(=O)N2CCC[C@@H]2C(=O)N(C)[C@@H](CC)C(=O)N[C@@H](CC)C(=O)N(C)[C@@H](C)C(=O)N[C@@H](CC(C)C)C(=O)N1C [LC02] ({CH2CO}-L[NMeA]L[dP][NMeAbu][Abu][NMeA]L[NMeC]-OEt; thioether N-9)    5
3) CCCN1CC(=O)N[C@@H](CC)C(=O)N(C)[C@@H](C)C(=O)N[C@@H](CC(C)C)C(=O)N(C)[C@H](C(=O)OCC)CSCC(=O)N[C@@H](CC(C)C)C(=O)N(C)[C@@H](C)C(=O)N[C@@H](CC(C)C)C(=O)N2CCC[C@@H]2C1=O [LA04] ({CH2CO}-L[NMeA]L[dP][NPrGly][Abu][NMeA]L[NMeC]-OEt; thioether N-9)    4
4) CCOC(=O)[C@@H]1CSCC(=O)N[C@@H](CC(C)C)C(=O)N(CC)CC(=O)N[C@@H](CC(C)C)C(=O)N2CCC[C@@H]2C(=O)N(C)[C@@H](C)C(=O)N[C@@H](CC)C(=O)N(C)[C@@H](C)C(=O)N[C@@H](CC(C)C)C(=O)N1C [LB02] ({CH2CO}-L[NEtG]L[dP][NMeA][Abu][NMeA]L[NMeC]-OEt; thioether N-9)    1

The values you see were collected from paper PMC10885153.
